B1: Pistol ribozyme (parent)
chain: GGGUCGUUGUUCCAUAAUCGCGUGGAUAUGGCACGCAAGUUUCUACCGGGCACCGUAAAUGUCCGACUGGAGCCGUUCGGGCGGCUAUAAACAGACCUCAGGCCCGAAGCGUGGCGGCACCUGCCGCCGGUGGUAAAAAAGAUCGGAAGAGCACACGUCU

- Variants of: B1
- Test Method Notes: aptazyme ON/OFF ratio, guanine; higher = stronger switching; co-transcriptional cleavage with and without guanine
Measure: aptazyme ON/OFF ratio

mutation="U7A G9C U10G C13A" measure="aptazyme ON/OFF ratio" reported_value=1.15
mutation="U8A G9C U10G C12G C13G" measure="aptazyme ON/OFF ratio" reported_value=1.15
mutation="U7C U8A G9C U10C U11A C12G C13U" measure="aptazyme ON/OFF ratio" reported_value=1.12
mutation="U7G U8A G9C U10C U11C C13U" measure="aptazyme ON/OFF ratio" reported_value=1.03
mutation="U8C G9A U11C C12U C13G" measure="aptazyme ON/OFF ratio" reported_value=1.08
mutation="U7A G9C U10G U11C C12G C13A" measure="aptazyme ON/OFF ratio" reported_value=1.11
mutation="G9U U10G U11G C12A C13G" measure="aptazyme ON/OFF ratio" reported_value=1.13
mutation="U8A G9A U10A U11C C12G C13U" measure="aptazyme ON/OFF ratio" reported_value=1.25
mutation="U7C U8C G9A U10C U11A C12A C13A" measure="aptazyme ON/OFF ratio" reported_value=1.18
mutation="U7C U8A G9C C12U C13G" measure="aptazyme ON/OFF ratio" reported_value=1.07
mutation="U8A G9U U11C C12U C13U" measure="aptazyme ON/OFF ratio" reported_value=1.16
mutation="U11A C12G C13U" measure="aptazyme ON/OFF ratio" reported_value=1.42
mutation="U7A U8C U10G C12A C13U" measure="aptazyme ON/OFF ratio" reported_value=1.15
mutation="U7G U8C G9A U10A U11C C13A" measure="aptazyme ON/OFF ratio" reported_value=1.1
mutation="U7A U8C G9A U10A U11G C12A C13A" measure="aptazyme ON/OFF ratio" reported_value=1.08
mutation="U7A U8A C12U C13G" measure="aptazyme ON/OFF ratio" reported_value=1.24
mutation="U7G U8C G9U U10G U11G" measure="aptazyme ON/OFF ratio" reported_value=1.55
mutation="U7A U10A C12A C13A" measure="aptazyme ON/OFF ratio" reported_value=1.27
mutation="U7A U8G U10G U11C C12G C13U" measure="aptazyme ON/OFF ratio" reported_value=1.56
mutation="U7C U8C G9U U10A U11G C12U C13G" measure="aptazyme ON/OFF ratio" reported_value=1.13
mutation="G9C U10A U11G C12G C13G" measure="aptazyme ON/OFF ratio" reported_value=1.13
mutation="U7G G9U U10G C12U" measure="aptazyme ON/OFF ratio" reported_value=1.55
